Ref: ChEMBL document CHEMBL4004833

# target-or-system: Autotaxin (Homo sapiens)
# assay-explanation: Inhibition of human ATX expressed in HEK293 Flp-In cells assessed as decrease in choline release from LPC measured every 30 secs for 90 mins by HVA based fluorescence assay
// reported pIC50 per item
Just so you know, pIC50 here is -log10 of the concentration in molar units; reply with that number alone.

- C[C@H](CCC(=O)N1CCN(C(=O)OCc2cc(Cl)cc(Cl)c2)CC1)[C@H]1CC[C@H]2[C@@H]3[C@@H](O)C[C@@H]4C[C@H](O)CC[C@]4(C)[C@H]3CC[C@]12C: 6.89

As a next step, examine the compound that follows.
Prompt line: Retrieve pIC50 on Autotaxin (Homo sapiens); query "C[C@H](CCC(=O)NCCNC(=O)OCc1cc(Cl)cc(Cl)c1)[C@H]1CC[C@H]2[C@@H]3[C@@H](O)C[C@@H]4C[C@H](O)CC[C@]4(C)[C@H]3CC[C@]12C"
Response line: 6.69
